- PROCEDURE SUMMARY: Cytotoxicity screening at 10 µM (MTT)
- Format: cell-based, Mus musculus
- ASSAY SETUP: Mus musculus, NCTC clone 929 cells, read-out: Cell line (viability %) NCTC clone 929
Labelling field: enter TRUE if recorded viability at 48 h, 10 µM is less than 9%. Enter FALSE if it equals or exceeds that cut-off.

MOLECULE	CATEGORY LABEL
Cc1c(C)n(Cc2ccccc2)c(=S)n1Cc1ccccc1 [Compound 10a]	FALSE
COc1cccc(Cn2c[n+](Cc3ccccc3)c(-c3ccccc3)c2-c2ccccc2)c1 [9c[PF6]]	TRUE
c1c[n+](OC23CC4CC(CC(C4)C2)C3)cn1OC12CC3CC(CC(C3)C1)C2 [Compound 2b]	TRUE
c1ccc(Cn2c[n+](Cc3ccccc3)c(-c3ccccc3)c2-c2ccccc2)cc1 [9b[PF6]]	TRUE
COc1cccc(Cn2c(C)c(C)n(Cc3ccccc3)c2=S)c1 [Compound 10b]	FALSE
COc1cccc(Cn2c(-c3ccccc3)c(-c3ccccc3)n(Cc3ccccc3)c2=S)c1 [Compound 10d]	FALSE
S=c1n(Cc2ccccc2)c(-c2ccccc2)c(-c2ccccc2)n1Cc1ccccc1 [Compound 10c]	FALSE
